SYSTEM NAME: Ataxin-2 (Homo sapiens)
PROTOCOL TEXT: qHTS for Inhibitors of ATXN expression.
Format: functional
Out of some 400,000 compounds screened, about 2,100 (0.53%) were called active. Another 14% or so got no clear call; they are omitted. No rule for the calls is given here. The entries come from a sample that favours actives as a whole.
Outcome codes: active, inactive

# MOLECULE, SYSTEM NAME, CLASS
rows = [
    ("CCOC(=O)c1c(-c2ccc(Cl)cc2)csc1NC(=O)CNCc1ccco1", "Ataxin-2 (Homo sapiens)", "inactive"),
    ("CCN(CC)c1ccc(/C=N/NC(=O)c2cccc(S(=O)(=O)N3CCOCC3)c2)c(O)c1", "Ataxin-2 (Homo sapiens)", "inactive"),
    ("CC(=O)c1ccc2noc(-c3ccc(C)cc3)c2c1", "Ataxin-2 (Homo sapiens)", "inactive"),
    ("Cc1ccc2cccnc2c1N", "Ataxin-2 (Homo sapiens)", "inactive"),
    ("CC(=O)c1ccc(F)c(-c2cc(C)cc3c2OC(CNC(=O)c2csc(C)n2)C3)c1 (configuration not stated)", "Ataxin-2 (Homo sapiens)", "inactive"),
    ("C/C(=N\\NC(=O)c1nc2ccccn2c1C)c1ccco1", "Ataxin-2 (Homo sapiens)", "inactive"),
    ("COc1ccc(/C=C2/C(=O)ON=C2C)cc1Br", "Ataxin-2 (Homo sapiens)", "inactive"),
    ("Cc1cc(C)c2sc(N(CCCN(C)C)C(=O)c3ccc(S(=O)(=O)N(C)Cc4ccccc4)cc3)nc2c1", "Ataxin-2 (Homo sapiens)", "active"),
    ("CN(C)CCN(C(=O)C1CCCCC1)c1nc2cc3c(cc2s1)OCCO3", "Ataxin-2 (Homo sapiens)", "inactive"),
    ("Cc1ccc(C(=O)c2no[n+]([O-])c2C(=O)c2ccc(C)cc2)cc1", "Ataxin-2 (Homo sapiens)", "active"),
    ("CN(C)c1ccnc2sc(C(=O)c3ccc(Br)cc3)c(N)c12", "Ataxin-2 (Homo sapiens)", "inactive"),
    ("Cc1ccc(N2C(=O)C3C(C(=O)c4ccccc4)=NN(c4ccccc4)C3C2=O)cc1 (configuration not stated)", "Ataxin-2 (Homo sapiens)", "inactive"),
    ("O=C(O)c1ccc(N/N=C/c2ccc(-c3ccc(Cl)cc3Cl)o2)cc1", "Ataxin-2 (Homo sapiens)", "inactive"),
    ("COCCNC(=O)c1c(N)n(-c2cccc(C)c2)c2nc3ccccc3nc12", "Ataxin-2 (Homo sapiens)", "inactive"),
    ("O=C(OCC(=O)N1CCCC1=O)C1CCN(S(=O)(=O)c2ccc(Cl)c(C(F)(F)F)c2)CC1", "Ataxin-2 (Homo sapiens)", "inactive"),
    ("CN(Cc1ccccc1)S(=O)(=O)c1csc(C(N)=O)c1", "Ataxin-2 (Homo sapiens)", "inactive"),
    ("Cc1c(C(=O)c2no[n+]([O-])c2C(=O)c2cnn(C)c2C)cnn1C", "Ataxin-2 (Homo sapiens)", "active"),
    ("CCn1nc(NC(C)=O)c2cc3ccc(C)cc3nc21", "Ataxin-2 (Homo sapiens)", "inactive"),
    ("C=CC(=O)/N=c1\\sc2ccccc2n1-c1ccccc1", "Ataxin-2 (Homo sapiens)", "active"),
    ("Cc1cc(C)c2sc(N(CCCN(C)C)C(=O)c3ccc(S(=O)(=O)N(C)C4CCCCC4)cc3)nc2c1", "Ataxin-2 (Homo sapiens)", "active"),
    ("N#CC12COC3(CCCCC3C1(C#N)C#N)OC2=N (configuration not stated)", "Ataxin-2 (Homo sapiens)", "inactive"),
    ("Cc1nc(Nc2cccc(Cl)c2)c2oc3ccccc3c2n1", "Ataxin-2 (Homo sapiens)", "inactive"),
]

###

SYSTEM NAME: Ataxin-2 (Homo sapiens) (UniProt Q99700)
Sequence (Q99700 whole entry): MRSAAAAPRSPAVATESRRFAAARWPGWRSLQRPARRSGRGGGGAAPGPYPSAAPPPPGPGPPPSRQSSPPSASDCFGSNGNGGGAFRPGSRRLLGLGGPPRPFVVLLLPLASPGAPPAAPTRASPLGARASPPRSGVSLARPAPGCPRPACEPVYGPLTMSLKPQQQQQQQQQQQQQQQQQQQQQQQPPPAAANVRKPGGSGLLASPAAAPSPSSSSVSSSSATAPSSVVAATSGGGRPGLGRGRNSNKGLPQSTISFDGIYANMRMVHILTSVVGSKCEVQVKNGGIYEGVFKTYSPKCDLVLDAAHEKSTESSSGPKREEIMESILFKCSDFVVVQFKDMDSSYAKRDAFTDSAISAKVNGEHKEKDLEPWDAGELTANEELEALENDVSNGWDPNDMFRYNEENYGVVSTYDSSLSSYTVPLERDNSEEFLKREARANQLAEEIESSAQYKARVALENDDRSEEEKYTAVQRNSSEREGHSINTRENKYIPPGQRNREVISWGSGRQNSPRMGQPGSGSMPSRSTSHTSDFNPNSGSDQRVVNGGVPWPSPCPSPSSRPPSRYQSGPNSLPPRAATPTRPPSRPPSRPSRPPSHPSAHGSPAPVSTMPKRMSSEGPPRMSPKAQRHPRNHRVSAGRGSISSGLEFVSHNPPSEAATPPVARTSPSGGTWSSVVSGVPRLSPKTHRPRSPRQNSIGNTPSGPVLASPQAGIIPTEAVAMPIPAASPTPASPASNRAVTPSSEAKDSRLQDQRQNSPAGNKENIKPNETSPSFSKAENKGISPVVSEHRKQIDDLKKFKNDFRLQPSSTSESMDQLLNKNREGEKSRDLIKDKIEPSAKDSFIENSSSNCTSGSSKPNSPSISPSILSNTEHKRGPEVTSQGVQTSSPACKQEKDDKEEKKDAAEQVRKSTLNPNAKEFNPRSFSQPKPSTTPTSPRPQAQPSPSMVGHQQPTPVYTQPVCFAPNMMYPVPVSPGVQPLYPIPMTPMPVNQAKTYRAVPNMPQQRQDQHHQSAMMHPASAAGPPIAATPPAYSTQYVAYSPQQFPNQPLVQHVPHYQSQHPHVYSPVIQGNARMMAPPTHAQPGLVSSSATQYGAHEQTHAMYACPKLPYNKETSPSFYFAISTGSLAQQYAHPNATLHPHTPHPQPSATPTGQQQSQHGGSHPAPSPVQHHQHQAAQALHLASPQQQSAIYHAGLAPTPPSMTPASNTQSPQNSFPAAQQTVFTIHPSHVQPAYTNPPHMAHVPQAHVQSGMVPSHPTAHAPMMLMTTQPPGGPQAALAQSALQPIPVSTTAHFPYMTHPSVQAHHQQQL
PROTOCOL TEXT: qHTS for Inhibitors of ATXN expression.
Assay type: functional
Out of some 400,000 compounds screened, about 2,100 (0.53%) were called active. About 14% were inconclusive and are not listed. The rule behind the calls is not given here. For the sample, actives were picked, then their nearest neighbours and some compounds at random.
Possible outcomes: active, inactive

# COMPOUND, CLASS
rows = [
    ("COc1ccc(CN(C(=O)COc2ccc(C)c(C)c2)C2CCS(=O)(=O)C2)cc1OC (stereo not given)", "inactive"),
    ("NS(=O)(=O)c1ccc(NCc2cnc3ccccc3c2)cc1", "inactive"),
    ("COc1ccc(NC(=O)CSc2c3c(nc4ccccc24)CCCC3)c(OC)c1", "active"),
    ("COc1ccc(C(CCN(Cc2ccc(OC)c(OC)c2)C(=O)CCl)c2ccccc2)cc1 (stereo not given)", "active"),
    ("COc1ccc(CN(C)CC(=O)Nc2ccc(SC(F)F)cc2)cc1OC", "inactive"),
]

###

SYSTEM NAME: Ataxin-2 (Homo sapiens)
PROTOCOL TEXT: qHTS for Inhibitors of ATXN expression.
Type: functional
About 2,100 (0.53%) of roughly 400,000 compounds were called active. About 14% were inconclusive and are not listed. Many of the other results were omitted from the sample, so actives are more common in it than they were.

# COMPOUND, SYSTEM NAME, Potency
records = [
    ("CCOc1ccc(-c2cnc3cccnn23)cc1", "Ataxin-2 (Homo sapiens)", "inactive"),
    ("COC(=O)c1sc2nc3c(c(-c4cccs4)c2c1N)CCCC3", "Ataxin-2 (Homo sapiens)", "inactive"),
    ("CCCCCCCNC(=O)C1(CC2CC(c3cccc(Br)c3)=NO2)CCNCC1 (stereo unspecified)", "Ataxin-2 (Homo sapiens)", "31.6 µM (active)"),
    ("COC(=O)CSc1nc(N)c2c3c(sc2n1)C(c1ccccc1)SC(c1ccccc1)C3 (stereo unspecified)", "Ataxin-2 (Homo sapiens)", "35.5 µM (active)"),
    ("COCC(C)OC(=O)c1c(N)n(CC(C)C)c2nc3ccccc3nc12 (stereo unspecified)", "Ataxin-2 (Homo sapiens)", "inactive"),
    ("COc1ccc(C2C=C(C)Nc3nc4ccccc4n32)cc1 (stereo unspecified)", "Ataxin-2 (Homo sapiens)", "inactive"),
    ("COc1ccc(-n2c(=O)/c(=C\\c3cccs3)s/c2=C(/C#N)C(=O)NCCN2CCOCC2)cc1", "Ataxin-2 (Homo sapiens)", "inactive"),
    ("CNC[C@@H](CC1CCCCC1)NC[C@H](CC(C)C)NCCc1cccc(C(F)(F)F)c1", "Ataxin-2 (Homo sapiens)", "15.8 µM (active)"),
    ("O=C(CN1CCCC1)Nc1ccc(Br)cc1", "Ataxin-2 (Homo sapiens)", "inactive"),
    ("N#Cc1nc(-c2cccc3ccccc23)oc1NCC1CCCO1 (stereo unspecified)", "Ataxin-2 (Homo sapiens)", "inactive"),
    ("CCCCCCCNC(=O)C1(CC2CC(c3ccc(Cl)cc3)=NO2)CCNCC1 (stereo unspecified)", "Ataxin-2 (Homo sapiens)", "25.1 µM (active)"),
]

###

SYSTEM NAME: Ataxin-2 (Homo sapiens) (UniProt Q99700)
PROTOCOL TEXT: qHTS for Inhibitors of ATXN expression.
Format: functional
Screen size: about 400,000 compounds; about 2,100 (0.53%) were called active. Not shown: some 14% with an inconclusive outcome. Only a selection was taken, and actives are over-represented in it overall.

# COMPOUND, Potency
data = [
    ("COc1cc(C2C=C(c3cccs3)Nc3ncnn32)cc(OC)c1OC (stereo unspecified)", "inactive"),
    ("COc1ccc(/C=N/n2c(S)nnc2COc2ccccc2)cc1OC", "inactive"),
    ("Cc1nc2ccccc2c(=O)n1/N=C/c1ccc(O)c(O)c1O", "inactive"),
    ("Cc1ccc(-c2[nH]ncc2/C=N/n2c(COc3ccccc3C)nc3ccccc3c2=O)cc1", "15.8 µM (active)"),
    ("COCc1cc(C)nc2sc(C(=O)Nc3ccccc3F)c(N)c12", "inactive"),
    ("CCOc1ccccc1NC(=O)COC(=O)C(Cc1ccccc1)NC(=O)c1ccco1 (stereo unspecified)", "inactive"),
    ("Cc1ccc(-c2[nH]ncc2/C=N/n2c(COc3ccccc3)nc3ccccc3c2=O)cc1", "39.8 µM (active)"),
    ("CC(C)(C)OC[C@H](NC(=O)c1[nH]cnc1C(=O)Nc1ccccc1F)C(=O)OC(C)(C)C", "35.5 µM (active)"),
    ("C=CCn1c(S)nnc1-c1ccc2ncccc2c1", "inactive"),
    ("CCCCC(C(=O)NC(C)c1ccccc1)C(=O)NC(C)c1ccccc1 (stereo unspecified)", "inactive"),
    ("Cc1ccc(-c2nc3ccccc3c(=O)o2)cc1", "inactive"),
]

###

SYSTEM NAME: Ataxin-2 (Homo sapiens) (UniProt Q99700)
PROTOCOL TEXT: qHTS for Inhibitors of ATXN expression.
Assay type: functional
About 2,100 (0.53%) of roughly 400,000 compounds were called active. Another 14% or so got no clear call; they are omitted. What follows is part of a selection rich in actives, with near analogues and random picks from the rest.
MEASUREMENT KIND: Potency

# COMPOUND, OBSERVED VALUE
data = [
    ("CCN(CC)c1ccc2cc(-c3nc4ccccc4[nH]3)c(=O)oc2c1", "inactive"),
    ("C/C(=N\\NC(=S)Nc1cccc(C)c1)c1cc2ccccc2o1", "inactive"),
    ("O=C(C[C@H]1C[C@H](C(=O)N2CCOCC2)[C@@]2(CCC3CCCC3)c3[nH]c4cc(-c5ccco5)ccc4c3CCN2C1=O)NCCN1CCOCC1", "35.5 µM (active)"),
    ("O=C(N/N=C/c1c(O)ccc2ccccc12)c1cccc(C(F)(F)F)c1", "inactive"),
    ("Cc1c(N=C2N=C(NC(=O)c3ccc(F)cc3)c3ccccc32)c(=O)n(-c2ccccc2)n1C", "inactive"),
    ("N#C/C(=C\\c1cccnc1)c1nc2c(s1)CCCC2", "inactive"),
    ("O=S(=O)(O)c1cccc(N=Nc2c(O)ccc3ccccc23)c1", "39.8 µM (active)"),
    ("CC1(C)CC2CC(C)(CN2C(S)=Nc2ccccc2)C1 (stereo unspecified)", "inactive"),
    ("COc1ccc(C/C(C)=N/NC(=S)Nc2ccccc2)cc1", "35.5 µM (active)"),
    ("COCCCn1c(=N)c(C(=O)NC2CCCC2)cc2c(=O)n3ccccc3nc21", "inactive"),
    ("CC(=O)c1c(C)[nH]c(C(=O)Nc2ccc(N3CCCCCC3)cc2)c1C", "inactive"),
    ("O=C(NNC(=O)c1cc(-c2cccnc2)nc2ccccc12)Nc1ccc(Cl)cc1", "inactive"),
    ("O=C(CCCNC1=NS(=O)(=O)c2ccccc21)Nc1ccc(Cl)cc1", "inactive"),
    ("Cc1ccc(C23OCCN2CCn2nc4ccccc4c23)cc1 (stereo unspecified)", "inactive"),
    ("Cc1ccnc(N2C(=O)c3cccc4c([N+](=O)[O-])ccc(c34)C2=O)c1", "inactive"),
    ("CCn1nc([N+](=O)[O-])c(C(C#N)c2nc3cc(C(F)(F)F)ccc3s2)c(Cl)c1=O (stereo unspecified)", "28.2 µM (active)"),
    ("Cc1cccc2cc3c(N)c(C(=O)N4CCc5ccccc54)sc3nc12", "inactive"),
    ("O=C(CCCCCn1c(=S)[nH]c2ccc(N3CCOCC3)cc2c1=O)NCCc1ccccc1", "inactive"),
    ("Cc1cc(C)c(C(CC(=O)c2cccs2)C(C#N)C#N)c(C)c1 (stereo unspecified)", "31.6 µM (active)"),
    ("O=C(CNCCC1=CCCCC1)Nc1ccc(N2CCCCCC2)cc1", "25.1 µM (active)"),
    ("CC(C)c1ccc(-n2nc3ccc(N)cc3n2)cc1", "inactive"),
    ("COc1ccc(/C=C2\\C(=O)N(c3c(Cl)cc(Cl)cc3Cl)N=C2NC(=O)c2cccc([N+](=O)[O-])c2)cc1", "22.4 µM (active)"),
    ("COCCNC(=O)Cc1c(C)c2c(cc(C)c3c(C)coc32)oc1=O", "inactive"),
    ("O=C(C[C@H]1C[C@H](C(=O)N2CCCCC2)[C@@]2(CCc3ccccc3)c3[nH]c4cc(-c5ccco5)ccc4c3CCN2C1=O)NCCN1CCOCC1", "31.6 µM (active)"),
    ("CCN1CCN(Cc2c(O)ccc3c(C)c(-c4ccccc4)c(=O)oc23)CC1", "inactive"),
    ("Cc1ccc(-c2csc3ncnc(Sc4nnc(CN5CCCCCC5=O)o4)c23)cc1", "39.8 µM (active)"),
    ("CN(C)CCCNC(=O)C[C@H]1C[C@H](C(=O)N2CCOCC2)[C@@]2(CCC3CCCC3)c3[nH]c4cc(-c5ccco5)ccc4c3CCN2C1=O", "35.5 µM (active)"),
    ("CC(Oc1ccccc1Cl)C(=O)N(Cc1cccs1)C1CCS(=O)(=O)C1 (stereo unspecified)", "inactive"),
    ("COc1ccccc1/N=c1\\oc2cc(O)ccc2cc1C(N)=O", "inactive"),
    ("C=C1c2ccccc2N=C(S)N1Cc1ccc2c(c1)OCO2", "inactive"),
    ("COc1ccc(/N=c2\\oc3ccc(OC)cc3cc2-c2nc3ccccc3[nH]2)cc1", "31.6 µM (active)"),
    ("Oc1ccccc1C=NN=Cc1c(O)ccc2ccccc12", "inactive"),
    ("COC(=O)CN1C(=O)N/C(=C/c2cc(Cl)c(OC)c(OC)c2)C1=O", "inactive"),
    ("O=C(N/N=C\\c1c(O)ccc2ccccc12)c1ccc(S(=O)(=O)N2CCCCC2)cc1", "inactive"),
    ("COc1ccc(N(CC(=O)Nc2ccccc2Cl)S(=O)(=O)c2ccc(C)cc2)cc1OC", "inactive"),
    ("COc1ccc2cc(-c3nc4ccc(C(=O)O)cc4[nH]3)c(=O)oc2c1", "inactive"),
    ("N#Cc1c(-c2ccccc2)cc(C2CC2)nc1SCC(=O)c1cccs1", "inactive"),
    ("Oc1ccc2ccccc2c1N=Nc1ccccn1", "14.1 µM (active)"),
    ("CCN1CCN(Cc2c(O)ccc3c(C)c(-c4ccc(OC)cc4)c(=O)oc23)CC1", "inactive"),
    ("CCc1ccc(NC(=O)CCNS(=O)(=O)c2cccs2)cc1", "inactive"),
    ("COc1ccc(CNC(=O)C/C(C)=N/NC(=O)c2ccc([N+](=O)[O-])cc2Cl)cc1", "inactive"),
]
